Assay: Lipophilicity, log K of the compound in methanol-water mixture by HPLC
Format: physicochemical
Simple rule here: log K less than 0.4 is Satisfied, otherwise Not satisfied.

Does CCCCCCCCCCOC(=O)C(CCCCN1C(=O)CCC1=O)N1CCCCC1=O (stereo not given) have log K strictly under 0.4?
Not satisfied

log K strictly < 0.4 for this compound? CCCCCCCCOC(=O)C(CCCCN1C(=O)CCC1=O)N1CCCCC1=O (stereo not given)
Satisfied

Given the entry CCCCCCCCCOC(=O)C(CCCCN1C(=O)CCC1=O)N1CCOCC1 (stereo not given) , would its reported log K be below 0.4?
Not satisfied

Bench note: check whether CCCCCCCOC(=O)C(CCCCN1C(=O)CCC1=O)N1CCCCC1=O (stereo not given) shows log K below 0.4
Satisfied

Say whether its log K is strictly beneath 0.4. Entry: CCOC(=O)C(CCCCN1C(=O)CCC1=O)N1CCCCC1=O (stereo not given)
Satisfied

Does the reported log K of the following compound sit strictly below 0.4? CCCCCCCCCCCOC(=O)C(CCCCN1C(=O)CCC1=O)N1CCCCC1=O (stereo not given)
Not satisfied

For CCCCCCCCCCCOC(=O)C(CCCCN1C(=O)CCC1=O)N1CCOCC1 (stereo not given) , is the recorded log K below the cut-off of 0.4?
Not satisfied

hey, is log K for CCCCCCCCCCCCOC(=O)C(CCCCN1C(=O)CCC1=O)N1CCCCC1=O (stereo not given) lower than 0.4 or not?
Not satisfied

Check if log K falls below 0.4 for CCCCCCCCOC(=O)C(CCCCN1C(=O)CCC1=O)N1CCOCC1 (stereo not given) .
Satisfied

Criterion: log K strictly below 0.4. Is it met by CCCCCCCCCOC(=O)C(CCCCN1C(=O)CCC1=O)N1CCCCC1=O (stereo not given) ?
Satisfied

====

Test: Lipophilicity, log K of the compound in methanol-water mixture by HPLC
Assay type: physicochemical
I'd appreciate it if you could supply log K values for the items below.
Keep the answer to the number alone.

Data request, read-out log K, for CCCCCCCCCCOC(=O)C(CCCCN1C(=O)CCC1=O)N1CCOCC1 (stereo unspecified)
0.5834

Which log K value belongs to CCOC(=O)C(CCCCN1C(=O)CCC1=O)N1CCOCC1 (stereo unspecified) ?
-0.7951

What does the record list as log K for CCCCCCOC(=O)C(CCCCN1C(=O)CCC1=O)N1CCOCC1 (stereo unspecified) ?
-0.0736

Which log K is reported for this compound? CCCCCCOC(=O)C(CCCCN1C(=O)CCC1=O)N1CCCCC1=O (stereo unspecified)
-0.2356

Reported log K, compound CCCCCCCOC(=O)C(CCCCN1C(=O)CCC1=O)N1CCOCC1 (stereo unspecified) : ____
0.0934

Find the recorded log K belonging to CCCCCCCCCCCCOC(=O)C(CCCCN1C(=O)CCC1=O)N1CCOCC1 (stereo unspecified) and report it.
0.9221

Measured values drawn from ChEMBL document CHEMBL1287769 for this set.
